- Target desc: HLA-A*02:01 (peptide-receptive MHC class I molecule, heavy chain with beta-2-microglobulin) (human)
- Method summary: UV-ligand exchange, anti-b2m ELISA; peptide exchange yield grade (>10% = +; >20% = ++; >50 = +++; >75% = ++++)
Quantity: peptide exchange yield

Please review the following examples before continuing.
ALLELLHEL (synthetic peptide; source gene LEMD2) [ALLELLHEL (SEQ ID NO: 49)]	> 75%
YIDDIFSGV (synthetic peptide; source gene TEX9) [YIDDIFSGV (SEQ ID NO: 41)]	> 75%

Now take the following binder into account.
I am curious: what peptide exchange yield value has been reported for TLSDVVVGL (synthetic peptide; source gene ELP4) [TLSDVVVGL (SEQ ID NO: 54)] ?
50 to 75%
